Recorded values, source the supplement of paper PMC10567573.

B1: KRT15 (parent)
chain: SNFHINVEESVDGQVVSSHKREI

# Variants of: B1
# Test name: protein stability index of a GFP-peptide fusion (GPS, HEK-293T) (PSI 1-6); higher = more stable;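 also: lentivirally expressed fusions sorted by FACS into six bins by GFP to DsRed ratio, PSI derived from sequencing read proportions per bin multiplied by bin number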
# Condition label: c terminus: native
Reported values of protein stability index for individual entries

Some variants with known protein stability index results, for comparison:
[[record]]
entry_sequence = "SNFHINVEESVDGNVVSSHKREI [Q14N]"
quantity_kind = "protein stability index"
value_observed = 2.05

[[record]]
entry_sequence = "SMFHINVEESVDGQVVSSHKREI [N2M]"
quantity_kind = "protein stability index"
value_observed = 2.04

[[record]]
entry_sequence = "SNFHTNVEESVDGQVVSSHKREI [I5T]"
quantity_kind = "protein stability index"
value_observed = 3.02

[[record]]
entry_sequence = "SNFHINVEESVDGQVVSSHKREK [I23K]"
quantity_kind = "protein stability index"
value_observed = 5.16

[[record]]
entry_sequence = "SNFHINVEESVKGQVVSSHKREI [D12K]"
quantity_kind = "protein stability index"
value_observed = 1.31


Quick check: protein stability index of SNFHINVEESVDGQVVSSHKREA [I23A] ? 4.14

Same question for SNFDINVEESVDGQVVSSHKREI [H4D] please. 2.63

Could you do the same for SNFHINVEESVGGQVVSSHKREI [D12G] , please? 1.45

Also SNFHINVEESVDGQVVKSHKREI [S17K] ? 1.82

Also, SNFHCNVEESVDGQVVSSHKREI [I5C] please. 4.36

Input SNFHFNVEESVDGQVVSSHKREI [I5F] 2.22

SNFHINVEQSVDGQVVSSHKREI [E9Q] , same question. 1.47

Moving on to the next variant: SNFHINVEESVDGQVVSSHKRCI [E22C] 4.59

Moving on to the next variant: SNFHINVEEPVDGQVVSSHKREI [S10P] 1.91

Next: SNFHINVEESVDGQMVSSHKREI [V15M] 4.02

Query SNFHINVEESVDGQVVSSHKAEI [R21A] next 4.45

Same lookup for SNFHINVEESVDGQVVSNHKREI [S18N] , please. 2.72

Please give the result for SNFHINVEESVDGQVMSSHKREI [V16M] too. 2.23

Then SNFHINVEESVDGQVVSSHKEEI [R21E] ? 5.02

What about this variant? SNFHINVIESVDGQVVSSHKREI [E8I] 2.73

And what about the variant SNFHINCEESVDGQVVSSHKREI [V7C] ? 4

Can you check SNFHINQEESVDGQVVSSHKREI [V7Q] next? 2.88

Also need SNFHINVEESVDGQVVSSHKREH [I23H] , thanks. 4.13

Same thing, different variant: SNFHINVEESVDGQVVISHKREI [S17I] 1.12

What would you report for SNFHINVEESVDGQVVWSHKREI [S17W] ? 4.29

Entry SNFHINVEESVDAQVVSSHKREI [G13A] please 2.73

Okay, and SNFHINVEPSVDGQVVSSHKREI [E9P] ? 2.26

What about SNFHINVEESSDGQVVSSHKREI [V11S] ? 2.48

Can you check SNFHINVEESVDGQVVSSHFREI [K20F] next? 2.07
